Target: Human TRPC6 (Homo sapiens, UniProt Q9Y210)
Construct: expressed in transfected cells
Sequence (Q9Y210 1-931): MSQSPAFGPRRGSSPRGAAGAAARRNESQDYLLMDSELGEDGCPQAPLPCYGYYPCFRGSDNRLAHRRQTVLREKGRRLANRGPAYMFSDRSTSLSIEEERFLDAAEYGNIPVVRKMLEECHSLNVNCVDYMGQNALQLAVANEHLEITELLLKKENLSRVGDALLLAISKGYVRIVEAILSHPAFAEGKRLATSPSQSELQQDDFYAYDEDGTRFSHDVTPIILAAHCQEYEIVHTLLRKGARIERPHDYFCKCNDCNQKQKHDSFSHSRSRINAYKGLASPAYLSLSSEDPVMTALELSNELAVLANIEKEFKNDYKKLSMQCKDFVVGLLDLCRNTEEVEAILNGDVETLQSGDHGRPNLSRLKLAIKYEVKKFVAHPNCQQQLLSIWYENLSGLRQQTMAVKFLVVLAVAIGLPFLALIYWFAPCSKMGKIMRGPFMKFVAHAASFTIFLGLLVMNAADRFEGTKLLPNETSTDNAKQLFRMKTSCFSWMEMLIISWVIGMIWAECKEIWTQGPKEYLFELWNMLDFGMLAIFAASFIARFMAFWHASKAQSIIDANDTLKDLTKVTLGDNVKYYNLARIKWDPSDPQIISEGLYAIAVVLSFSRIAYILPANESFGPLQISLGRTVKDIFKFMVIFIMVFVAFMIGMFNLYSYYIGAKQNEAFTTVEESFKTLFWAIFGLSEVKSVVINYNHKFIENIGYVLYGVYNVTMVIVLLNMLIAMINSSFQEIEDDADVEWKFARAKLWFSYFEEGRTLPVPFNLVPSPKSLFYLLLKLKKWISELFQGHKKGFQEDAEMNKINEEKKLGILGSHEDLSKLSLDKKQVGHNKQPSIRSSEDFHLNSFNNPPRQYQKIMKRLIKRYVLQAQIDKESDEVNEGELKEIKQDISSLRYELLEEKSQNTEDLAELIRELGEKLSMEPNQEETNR
Assay: Evaluation of TRPC6 channel inhibitory activity (1), FLIPR Calcium 5 Assay Kit, OAG stimulation (Compound Nos. 1-1293)
Assay type: cell-based
Conditions: Human TRPC6 stably-expressing cells, OAG 30 μM, FLIPR Calcium 5 Assay Kit; read-out: Inhibitory activity (pIC50 class) (converted)
quantity_measured: IC50

Cc1cc(Oc2cc(C#N)ccc2-c2ccc([C@H](O)CN)cn2)cc(N2CCCC2)n1 [compound 498] = < 10 nM

IC50 lookup needed for CCOC(=O)CCNCCc1ccc(-c2ccc(C#N)cc2Oc2cc(N3CCOCC3)nc(C)n2)cc1 [Compound 54] , thanks.
> 1000 nM

Please report the recorded IC50 for Cc1nc(Oc2cc(C#N)ccc2-c2ccc(C(O)CN(C)C)cc2)cc(N2CCOCC2)n1 (stereo not drawn) [Compound 106] .
> 1000 nM

Which IC50 is reported for this molecule? CC(C)(C)OCCOc1cc(Oc2cc(C#N)ccc2-c2ccc(CCN)cc2)cnn1 [Compound 127]
> 1000 nM

* * *

Biological target: Human TRPC6 (Homo sapiens, UniProt Q9Y210)
Construct: expressed in transfected cells
Test: Evaluation of TRPC6 channel inhibitory activity (1), FLIPR Calcium 5 Assay Kit, OAG stimulation (Compound Nos. 1-1293)
Assay type: cell-based
Details: Human TRPC6 stably-expressing cells, OAG 30 μM, FLIPR Calcium 5 Assay Kit; read-out: Inhibitory activity (pIC50 class) (converted)
quantity_measured: IC50

Known results for compounds:
Cc1nc(Oc2cc(C#N)ccc2-c2csc(C(O)CN)n2)cc(N2CCOCC2)n1 (centres unmarked) = 10 to 1000 nM
CN(C)c1cc(Oc2cc(C#N)ccc2-c2ncc(CCN)cn2)n(C)n1 = < 10 nM
N#Cc1ccc(-c2ncc(CN)cn2)c(Oc2nnc(-c3ccccn3)s2)c1 = > 1000 nM
CN(CC1CC1)c1cc(Oc2cc(C#N)ccc2-c2ncc(CCN)cn2)n(C)n1 = < 10 nM
Cc1cc(Oc2cc(C#N)ccc2-c2ncc(CCN)cn2)cc(-c2ncccn2)n1 = > 1000 nM
Cc1nc(OCC(C)C)cc(Oc2cc(C#N)ccc2-c2ncc(CCN)cn2)n1 = < 10 nM

Which measured IC50 value corresponds to Cc1cc(Oc2nc(C#N)ccc2-c2ncc(CN)cn2)cc(N2CCOCC2)n1 ?
> 1000 nM

# input compound: Cc1nc(Oc2cc(C#N)ccc2-c2ccc(C3(CN)CC3)cc2)cc(N2CCOCC2)n1 ; wanted: its IC50
10 to 1000 nM

Look up IC50 for this compound: N#Cc1ccc(-c2ncc(CCN)cn2)c(Oc2cnnc(N3CCOCC3)c2)c1
10 to 1000 nM

Please look up its IC50: Cn1nc(C2CCOCC2)cc1Oc1cc(F)ccc1-c1ncc(CCN)cn1
10 to 1000 nM

# lookup: IC50 of CCc1c(Oc2cc(C#N)ccc2-c2ncc(CCN)cn2)cnn1CC(C)C
10 to 1000 nM

IC50 lookup needed for Cc1nc(Oc2cc(C#N)ccc2-c2ccc(CC3(N)COC3)cn2)cc(N2CCC[C@H]2C#N)n1 , thanks.
> 1000 nM

Give the measured IC50 of Cc1nc(Oc2cc(C#N)ccc2-c2ccc(CC(C)(C)N)cc2)cc(N2CCOCC2)n1 .
< 10 nM

// returns reported IC50 for input Cn1nc2c(c1Oc1cc(C#N)ccc1-c1cc(CCN)ccn1)CCC2
> 1000 nM

What measured IC50 goes with CC(=O)Nc1ccccc1-c1cc(Oc2cc(C#N)ccc2-c2ccc(CCN)cc2)cnn1 ?
> 1000 nM

For the compound shown here, CCC(N)c1cnc(-c2ccc(C#N)cc2Oc2cc(C)nc(N3CCOCC3)c2)nc1 (centres unmarked) , give the reported IC50.
< 10 nM

Please report the recorded IC50 for Cc1ccccc1-c1cc(Oc2cc(C#N)ccc2-c2ccc([C@@H](O)CN)cn2)n(C)n1 .
< 10 nM

* * *

Target: Human TRPC6 (Homo sapiens)
Construct: expressed in transfected cells
Sequence (Q9Y210 1-931): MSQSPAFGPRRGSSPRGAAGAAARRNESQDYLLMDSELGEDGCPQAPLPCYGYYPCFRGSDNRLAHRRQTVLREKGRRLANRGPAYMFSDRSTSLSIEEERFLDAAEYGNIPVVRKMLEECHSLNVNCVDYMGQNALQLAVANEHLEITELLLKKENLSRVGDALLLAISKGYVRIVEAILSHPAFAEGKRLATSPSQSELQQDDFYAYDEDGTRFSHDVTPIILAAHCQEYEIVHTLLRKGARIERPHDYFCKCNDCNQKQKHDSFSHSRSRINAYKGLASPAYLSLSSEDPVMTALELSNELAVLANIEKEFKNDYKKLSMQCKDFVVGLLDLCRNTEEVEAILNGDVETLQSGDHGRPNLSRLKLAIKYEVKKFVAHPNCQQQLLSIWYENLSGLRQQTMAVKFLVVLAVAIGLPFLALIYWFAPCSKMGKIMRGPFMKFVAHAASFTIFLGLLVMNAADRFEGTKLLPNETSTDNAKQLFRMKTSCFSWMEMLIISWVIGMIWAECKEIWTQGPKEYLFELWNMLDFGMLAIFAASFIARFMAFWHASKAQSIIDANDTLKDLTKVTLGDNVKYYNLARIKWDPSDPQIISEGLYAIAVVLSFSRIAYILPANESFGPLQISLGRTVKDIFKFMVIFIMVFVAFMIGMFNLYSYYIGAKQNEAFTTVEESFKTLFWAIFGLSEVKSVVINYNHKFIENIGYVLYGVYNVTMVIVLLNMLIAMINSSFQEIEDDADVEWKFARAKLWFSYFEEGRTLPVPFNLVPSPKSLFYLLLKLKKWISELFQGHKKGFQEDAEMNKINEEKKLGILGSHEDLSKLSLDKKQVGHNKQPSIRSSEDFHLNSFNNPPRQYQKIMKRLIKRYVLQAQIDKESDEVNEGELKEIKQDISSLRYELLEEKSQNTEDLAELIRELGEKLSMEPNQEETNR
Assay: Evaluation of TRPC6 channel inhibitory activity (2), HEK293 cells with stably introduced human TRPC6, OAG stimulation, FLIPR tetra (Compound Nos. 1293 to 1405)
Assay type: cell-based
Settings: HEK293 cells with stably introduced human TRPC6, OAG 50 μM/0.5% DMSO, read-out: Inhibitory activity (pIC50 class) (converted)
Method: Evaluation of TRPC6 Channel Inhibitory Activity (2) (Compound Nos. 1293 to 1405) The activity of the TRPC6 inhibitor was measured by stimulating HEK293 cells, in which human TRPC6 was stably introduced, with OAG (1-Oleoyl-2-acetyl-sn-glycerol, Miliipore Sigma, 06754), using the FLIPR tetra system. […] A volume of 12.5 μL of OAG solution was added, and activation of TRPC6 channel was measured using the FLIPR tetra system assaying the change in intracellular calcium level as an index. […]
quantity_measured: IC50

Cc1cc(Oc2cc(Cl)ccc2-c2ncc(CCN)cn2)cc(N2CCOCC2)n1 [compound 1311] = 10 to 1000 nM
Cn1nc(-c2ccccn2)cc1Oc1cc(C#N)ccc1-c1nc(Cl)ccc1CN [compound 1333] = 10 to 1000 nM
Cn1nc(-c2ccccn2)cc1Oc1cc(C#N)ccc1-c1ccc(C(F)(F)CN)cn1 [compound 1312] = < 10 nM

Shifting focus to the compound that follows.
Tell me reported IC50 for Cn1nc(C2CC2)cc1Oc1cc(F)ccc1-c1ncc(C(F)CN)cn1 (stereo in doubt) [compound 1381] , tested with Human TRPC6 (Homo sapiens).
> 1000 nM
